# AUCt per entry
- experimental protocol: AUC (0 to t) in Beagle dog at 1 mg/kg, iv measured upto 24 hrs by LC-MS/MS analysis
- Format: ADME, organism-based, Canis lupus familiaris
- Design: dose 1 mg/kg, time < 24 hrs, route iv
- conditions used: in vivo
endpoint name: AUCt (ng·h/mL)

>>> meas_value("N#Cc1ccc2[nH]cc(CCCCN3CCN(c4ccc5oc(C(N)=O)cc5c4)CC3)c2c1 [VILAZODONE]")
791
>>> meas_value("N#Cc1ccc2[nH]cc(CCCCN3CCN(c4ncc(-c5ccc(F)cc5F)cn4)CC3)c2c1")
2820
>>> meas_value("N#Cc1ccc2[nH]cc(CCCCN3CCN(c4ncc(-c5cccc(C(N)=O)c5)cn4)CC3)c2c1")
2330
>>> meas_value("N#Cc1ccc2[nH]cc(CCCCN3CCN(c4ncc(-c5ccc(Cl)cc5)cn4)CC3)c2c1")
2840

====

- experimental protocol: Oral bioavailability in human at 2.5 to […]
- Format: ADME, organism-based
- conditions used: in vivo, dose lower 2.5 mg/kg
endpoint name: bioavailability

>>> meas_value("Cc1ccc(Sc2ccccc2N2CCNCC2)c(C)c1 [VORTIOXETINE]")
"75%"

====

# half-life per entry
- experimental protocol: Half life in Sprague-Dawley rat at 2.5 mg/kg, po measured upto 24 hrs by LC-MS/MS analysis
- Type: ADME, organism-based
- conditions used: in vivo
endpoint name: half-life (min)

>>> meas_value("N#Cc1ccc2[nH]cc(CCCCN3CCN(c4ccc5oc(C(N)=O)cc5c4)CC3)c2c1")
174
>>> meas_value("N#Cc1ccc2[nH]cc(CCCCN3CCN(c4ncc(-c5ccc(F)cc5F)cn4)CC3)c2c1")
437
>>> meas_value("N#Cc1ccc2[nH]cc(CCCCN3CCN(c4ncc(-c5ccc(Cl)cc5)cn4)CC3)c2c1")
584
>>> meas_value("N#Cc1ccc2[nH]cc(CCCCN3CCN(c4ncc(-c5cccc(C(N)=O)c5)cn4)CC3)c2c1")
117

====

- experimental protocol: Half life in Beagle dog at 1 mg/kg, iv measured upto 24 hrs by LC-MS/MS analysis
- Type: ADME, organism-based, Canis lupus familiaris
- conditions used: in vivo
endpoint name: half-life (min)

>>> meas_value("N#Cc1ccc2[nH]cc(CCCCN3CCN(c4ncc(-c5ccc(F)cc5F)cn4)CC3)c2c1")
263
>>> meas_value("N#Cc1ccc2[nH]cc(CCCCN3CCN(c4ncc(-c5ccc(Cl)cc5)cn4)CC3)c2c1")
1250
>>> meas_value("N#Cc1ccc2[nH]cc(CCCCN3CCN(c4ccc5oc(C(N)=O)cc5c4)CC3)c2c1 [VILAZODONE]")
79.2
>>> meas_value("N#Cc1ccc2[nH]cc(CCCCN3CCN(c4ncc(-c5cccc(C(N)=O)c5)cn4)CC3)c2c1")
281

====

- experimental protocol: Oral bioavailability in Sprague-Dawley rat at 5 mg/kg measured upto 24 hrs by LC-MS/MS analysis
- Format: ADME, organism-based
- conditions used: in vivo
# bioavailability per entry
endpoint name: bioavailability (%)

>>> meas_value("N#Cc1ccc2[nH]cc(CCCCN3CCN(c4ncc(-c5ccc(Cl)cc5)cn4)CC3)c2c1")
47.8
>>> meas_value("N#Cc1ccc2[nH]cc(CCCCN3CCN(c4ccc5oc(C(N)=O)cc5c4)CC3)c2c1")
52.5
>>> meas_value("N#Cc1ccc2[nH]cc(CCCCN3CCN(c4ncc(-c5ccc(F)cc5F)cn4)CC3)c2c1")
53.5
>>> meas_value("N#Cc1ccc2[nH]cc(CCCCN3CCN(c4ncc(-c5cccc(C(N)=O)c5)cn4)CC3)c2c1")
37.2

====

- experimental protocol: Drug concentration in Sprague-Dawley rat brain at 10 mg/kg, ip measured at 60 min by LC/MS-MS analysis
- Type: ADME, organism-based
- conditions used: read-out: Ct
endpoint name: concentration at 1 h (ng/g)

>>> meas_value("N#Cc1ccc2[nH]cc(CCCCN3CCN(c4ncc(-c5ccc(F)cc5F)cn4)CC3)c2c1")
2240
>>> meas_value("N#Cc1ccc2[nH]cc(CCCCN3CCN(c4ccc5oc(C(N)=O)cc5c4)CC3)c2c1")
606

====

# AUC(0-t) at 24 h per entry
- experimental protocol: AUC (0 to t) in Sprague-Dawley rat at 2.5 mg/kg, po measured upto 24 hrs by LC-MS/MS analysis
- Format: ADME, organism-based
- Parameters: dose 2.5 mg/kg, time < 24 hrs, route po
- conditions used: in vivo
endpoint name: AUC(0-t) at 24 h (µg·h/mL)

>>> meas_value("N#Cc1ccc2[nH]cc(CCCCN3CCN(c4ncc(-c5cccc(C(N)=O)c5)cn4)CC3)c2c1")
0.706
>>> meas_value("N#Cc1ccc2[nH]cc(CCCCN3CCN(c4ncc(-c5ccc(Cl)cc5)cn4)CC3)c2c1")
2.95
>>> meas_value("N#Cc1ccc2[nH]cc(CCCCN3CCN(c4ncc(-c5ccc(F)cc5F)cn4)CC3)c2c1")
2.79
>>> meas_value("N#Cc1ccc2[nH]cc(CCCCN3CCN(c4ccc5oc(C(N)=O)cc5c4)CC3)c2c1")
0.443

====

- experimental protocol: Volume of distribution at steady state in Sprague-Dawley rat at 1 mg/kg, iv measured upto 24 hrs by LC-MS/MS analysis
- Format: ADME, organism-based
- conditions used: in vivo, read-out: Vdss
endpoint name: Vd

>>> meas_value("N#Cc1ccc2[nH]cc(CCCCN3CCN(c4ncc(-c5cccc(C(N)=O)c5)cn4)CC3)c2c1")
"2.33 L/kg"
>>> meas_value("N#Cc1ccc2[nH]cc(CCCCN3CCN(c4ncc(-c5ccc(Cl)cc5)cn4)CC3)c2c1")
"5.46 L/kg"
>>> meas_value("N#Cc1ccc2[nH]cc(CCCCN3CCN(c4ncc(-c5ccc(F)cc5F)cn4)CC3)c2c1")
"6.41 L/kg"
>>> meas_value("N#Cc1ccc2[nH]cc(CCCCN3CCN(c4ccc5oc(C(N)=O)cc5c4)CC3)c2c1 [VILAZODONE]")
"3.74 L/kg"

====

- experimental protocol: Clearance in Sprague-Dawley rat at 1 mg/kg, iv measured upto 24 hrs by LC-MS/MS analysis
- Assay type: ADME, organism-based
- conditions used: Sprague-Dawley, in vivo
endpoint name: clearance

>>> meas_value("N#Cc1ccc2[nH]cc(CCCCN3CCN(c4ccc5oc(C(N)=O)cc5c4)CC3)c2c1")
"40.2 mL/min/kg"

====

- experimental protocol: AUC (0 to t) in Sprague-Dawley rat at 1 mg/kg, iv measured upto 24 hrs by LC-MS/MS analysis
- Type: ADME, organism-based
- Parameters: time < 24 hrs, dose 1 mg/kg, route iv
- conditions used: Sprague-Dawley, in vivo
endpoint name: AUC(0-t) at 24 h

>>> meas_value("N#Cc1ccc2[nH]cc(CCCCN3CCN(c4ccc5oc(C(N)=O)cc5c4)CC3)c2c1")
"409 ng·h/mL"

====

- experimental protocol: Ratio of drug concentration in brain to plasma in Sprague-Dawley rat at 10 mg/kg, ip measured at 15 min by LC-MS/MS analysis
- Format: ADME, organism-based
- conditions used: read-out: BPR
# Kp at 0.25 h per entry
endpoint name: Kp at 0.25 h

>>> meas_value("N#Cc1ccc2[nH]cc(CCCCN3CCN(c4ncc(-c5ccc(F)cc5F)cn4)CC3)c2c1")
1.82
>>> meas_value("N#Cc1ccc2[nH]cc(CCCCN3CCN(c4ccc5oc(C(N)=O)cc5c4)CC3)c2c1 [VILAZODONE]")
0.56

====

# concentration at 2 h per entry
- experimental protocol: Drug concentration in Sprague-Dawley rat plasma at 10 mg/kg, ip measured at 120 min by LC/MS-MS analysis
- Format: ADME, organism-based
endpoint name: concentration at 2 h (ng/mL)

>>> meas_value("N#Cc1ccc2[nH]cc(CCCCN3CCN(c4ncc(-c5ccc(F)cc5F)cn4)CC3)c2c1")
935
>>> meas_value("N#Cc1ccc2[nH]cc(CCCCN3CCN(c4ccc5oc(C(N)=O)cc5c4)CC3)c2c1")
861

====

- experimental protocol: Volume of distribution at steady state in Beagle dog at 1 mg/kg, iv measured upto 24 hrs by LC-MS/MS analysis
- Format: ADME, organism-based, Canis lupus familiaris
- conditions used: in vivo, read-out: Vdss
endpoint name: Vd (L/kg)

>>> meas_value("N#Cc1ccc2[nH]cc(CCCCN3CCN(c4ccc5oc(C(N)=O)cc5c4)CC3)c2c1")
2.14
>>> meas_value("N#Cc1ccc2[nH]cc(CCCCN3CCN(c4ncc(-c5ccc(F)cc5F)cn4)CC3)c2c1")
3.4
>>> meas_value("N#Cc1ccc2[nH]cc(CCCCN3CCN(c4ncc(-c5ccc(Cl)cc5)cn4)CC3)c2c1")
5.52
>>> meas_value("N#Cc1ccc2[nH]cc(CCCCN3CCN(c4ncc(-c5cccc(C(N)=O)c5)cn4)CC3)c2c1")
2.13

====

pIC50: −log10 of the molar value.
Measurement record for Sodium-dependent serotonin transporter (Homo sapiens); quantity recorded: pIC50.
endpoint name: pIC50

>>> meas_value("COc1cc(F)ccc1-c1cnc(N2CCN(CCCCc3c[nH]c4ccc(C#N)cc34)CC2)nc1")
"> 8.70"
>>> meas_value("N#Cc1ccc2[nH]cc(CCCCN3CCN(c4ncc(-c5ccc(C(N)=O)cc5)cn4)CC3)c2c1")
"> 8.70"
>>> meas_value("COc1ccccc1-c1cnc(N2CCN(CCCCc3c[nH]c4ccc(C#N)cc34)CC2)nc1")
"> 8.70"

Provenance of the data: ChEMBL document CHEMBL5316302
